Cited source: ChEMBL document CHEMBL3988442

Catalogue of compounds with associated Percent Effect
Tested on: Trypanosoma cruzi
Test: Trypanosoma cruzi phosphomannomutase and mannose-1-phosphate guanylyltransferase assay
Format: functional
Design: scale not given: direction of the effect not stated beside the values
Conditions: 10 µM

compound: CCNC(=O)c1nnc2ccc(N3CCOCC3)cc2n1
tgt: Trypanosoma cruzi
Percent Effect: -6.09%
//
compound: Cc1cn2c(n1)CCC(NC(=O)c1cc(C(C)C)no1)C2 (stereo unspecified)
tgt: Trypanosoma cruzi
Percent Effect: 1.67%
//
compound: CS(=O)(=O)NCCCNC(=O)c1cccc(-n2cccc2)c1
tgt: Trypanosoma cruzi
Percent Effect: 2.04%
//
compound: COCCCN1CCCN(C(C)C(=O)Nc2ccnn2C(C)C)CC1 (stereo unspecified)
tgt: Trypanosoma cruzi
Percent Effect: 0.195%
//
compound: CC(C)(C)c1ccn(C2(C(=O)O)CCN(c3nccc(N)n3)CC2)n1
tgt: Trypanosoma cruzi
Percent Effect: -2.23%
//
compound: Cc1cc(C(=O)N2C[C@@H]3[C@@H](C2)OCC(=O)N3CC2CC2)no1
tgt: Trypanosoma cruzi
Percent Effect: -6.98%
//
compound: CS(=O)(=O)N1CCOCC2(CCN(C(=O)c3cccnc3)CC2)C1
tgt: Trypanosoma cruzi
Percent Effect: 2.78%
//
compound: O=C(CCc1cc2n(n1)CCCN(Cc1ccccc1F)C2)NC1CC1
tgt: Trypanosoma cruzi
Percent Effect: 6.71%
//
compound: COCCC(=O)N1CCc2cc(Cl)cc(Cl)c2C1
tgt: Trypanosoma cruzi
Percent Effect: 1.87%
//
compound: c1ccc(-c2nc(CN3CCCC(Cn4cncn4)C3)co2)cc1 (stereo unspecified)
tgt: Trypanosoma cruzi
Percent Effect: 1.54%
//
compound: CCOCCCn1c(NC(=O)c2scnc2C)nc2ccccc21
tgt: Trypanosoma cruzi
Percent Effect: 11.1%
